# testTarget: VHL co-expressed with Elongins B and C (Homo sapiens (Human))
# Sequence (P40337 whole entry, looked up): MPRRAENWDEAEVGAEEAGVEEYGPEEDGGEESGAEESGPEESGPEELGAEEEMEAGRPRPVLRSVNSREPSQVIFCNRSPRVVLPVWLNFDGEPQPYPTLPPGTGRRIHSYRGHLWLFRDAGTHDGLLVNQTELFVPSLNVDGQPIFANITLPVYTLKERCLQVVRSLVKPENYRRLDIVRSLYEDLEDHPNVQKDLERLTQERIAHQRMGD
# Sequence (Q15370 whole entry partner, looked up): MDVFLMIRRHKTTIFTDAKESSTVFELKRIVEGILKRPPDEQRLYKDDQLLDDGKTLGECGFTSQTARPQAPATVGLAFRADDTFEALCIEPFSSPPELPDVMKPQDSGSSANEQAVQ
# Sequence (Q15369 whole entry partner, looked up): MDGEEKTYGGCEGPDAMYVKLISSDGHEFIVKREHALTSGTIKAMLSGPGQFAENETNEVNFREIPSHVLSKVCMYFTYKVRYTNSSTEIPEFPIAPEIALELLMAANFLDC
# protocolNotes: Surface Plasmon Resonance Assay
# Assay type: binding
# conditionInfo: SPR measured VHL affinity; geometric mean where more than one measurement
valueKind: Kd (µM)

The examples below pair each entry with its known result.
INSERT INTO results (molecule, valuekind, quantitativeresult) VALUES
  ('Cc1cc([C@@H](C(=O)N2C[C@H](O)C[C@H]2C2=NOC(C)(c3ccc(-c4scnc4C)cc3)N2)C(C)C)on1 (single isomer, unassigned) [Example 129.1]', 'Kd', 48.1),
  ('Cc1cc([C@@H](C(=O)N2C[C@H](O)C[C@H]2C2=NO[C@](C)(c3ccc(Br)cc3)N2)C(C)C)on1 (mixture of isomers)', 'Kd', 90.8),
  ('CCN1N=C([C@@H]2C[C@@H](O)CN2C(=O)C(c2cc(C)no2)C(C)C)NC1(C)C (single isomer, unassigned) [Example 115.1]', 'Kd', 150);

a: Cc1cc([C@@H](C(=O)N2C[C@H](O)C[C@H]2C2=NOC3(CCc4ccccc43)N2)C(C)C)on1 (single isomer, unassigned) [Example 130.2]
b: Cc1cc(C(C(=O)N2C[C@H](O)CC2C2=NC(=O)C(C)(c3ccc(Br)cc3)N2)C(C)C)on1 (single isomer, unassigned) [Example 103.4]
c: Cc1cc(C(C(=O)N2C[C@H](O)CC2C2=NC(=O)C(C)(c3ccc(-c4scnc4C)cc3)N2)C(C)C)on1 (single isomer, unassigned) [Example 104.4]
Rank entries according to their Kd, from the largest number down. Form entry: labels listed in requested order.
a, b, c
(a: 121 µM, b: 1.09 µM, c: 0.171 µM)

Cited source for all entries: patent US11242344B2
